Provide the reported ΔTm of each item.
tested on: i-motif DNA; experiment: Binding affinity to human telomeric 1ELN i-motif DNA assessed as change in melting temperature at 20 uM at pH 5.5 by FRET assay; format: nucleic-acid assay
Answers are plain numbers, in °C.

// known answers, use as guide
{"Structure as smiles": "O=C(O)C1=CO[C@@H](O[C@@H]2O[C@H](CO)[C@@H](O)[C@H](O)[C@H]2O)[C@@H]2C(CO)=CC[C@H]12", "Experimental system": "i-motif DNA", "Property label": "ΔTm", "Units of measure": "°C", "Reading": -0.5}
{"Structure as smiles": "O=C(O)[C@H]1O[C@@H](Oc2cc3oc(-c4ccccc4)cc(=O)c3c(O)c2O)[C@H](O)[C@@H](O)[C@@H]1O", "Experimental system": "i-motif DNA", "Property label": "ΔTm", "Units of measure": "°C", "Reading": -0.4}
{"Structure as smiles": "O=c1c(-c2ccc(O)cc2)coc2cc(O[C@@H]3O[C@H](CO)[C@@H](O)[C@H](O)[C@H]3O)ccc12", "Experimental system": "i-motif DNA", "Property label": "ΔTm", "Units of measure": "°C", "Reading": -0.3}
{"Structure as smiles": "O=c1ccc2cc(O[C@@H]3O[C@H](CO)[C@@H](O)[C@H](O)[C@H]3O)c(O)cc2o1", "Experimental system": "i-motif DNA", "Property label": "ΔTm", "Units of measure": "°C", "Reading": -0.4}
{"Structure as smiles": "O=c1c(-c2ccc(O)cc2)coc2cc(O[C@@H]3O[C@H](CO)[C@@H](O)[C@H](O)[C@H]3O)cc(O)c12", "Experimental system": "i-motif DNA", "Property label": "ΔTm", "Units of measure": "°C", "Reading": -0.8}

Below is a list of compounds. For each, state its recorded ΔTm.
1. OC[C@H]1O[C@@H](O[C@@H]2[C@@H](CO)O[C@](O)(CO)[C@H]2O)[C@H](O)[C@@H](O)[C@H]1O
2. COC(=O)C1=CO[C@@H](O[C@@H]2O[C@H](CO)[C@@H](O)[C@H](O)[C@H]2O)[C@@H]2C(CO)=CC[C@H]12

Outgoing:
[-0.4, -0.5]

---

tested on: i-motif DNA; assay: Binding affinity to human telomeric 1ELN i-motif DNA assessed as change in melting temperature at 20 uM at pH 7.4 by FRET assay; type: nucleic-acid assay
Provide the reported ΔTm of each item.
Numbers only, in °C.

// known answers, use as guide
{"Structure as smiles": "OC[C@H]1O[C@@H](O[C@@H]2[C@@H](CO)O[C@](O)(CO)[C@H]2O)[C@H](O)[C@@H](O)[C@H]1O", "ΔTm / °C": -3.7}
{"Structure as smiles": "O=C(O)[C@H]1O[C@@H](Oc2cc3oc(-c4ccccc4)cc(=O)c3c(O)c2O)[C@H](O)[C@@H](O)[C@@H]1O", "ΔTm / °C": -3.9}
{"Structure as smiles": "O=c1ccc2cc(O[C@@H]3O[C@H](CO)[C@@H](O)[C@H](O)[C@H]3O)c(O)cc2o1", "ΔTm / °C": -6.4}
{"Structure as smiles": "O=c1c(-c2ccc(O)cc2)coc2cc(O[C@@H]3O[C@H](CO)[C@@H](O)[C@H](O)[C@H]3O)cc(O)c12", "ΔTm / °C": -5.4}
{"Structure as smiles": "O=c1c(-c2ccc(O)cc2)coc2cc(O[C@@H]3O[C@H](CO)[C@@H](O)[C@H](O)[C@H]3O)ccc12", "ΔTm / °C": 0}

Below is a list of compounds. For each, state its recorded ΔTm.
1. COC(=O)C1=CO[C@@H](O[C@@H]2O[C@H](CO)[C@@H](O)[C@H](O)[C@H]2O)[C@@H]2C(CO)=CC[C@H]12
2. O=C(O)C1=CO[C@@H](O[C@@H]2O[C@H](CO)[C@@H](O)[C@H](O)[C@H]2O)[C@@H]2C(CO)=CC[C@H]12

Outgoing:
-1.8
-2.5
